- System: A549
- experiment: Antiproliferative activity against human A549 cells after 48 hrs by SRB assay
- Type: functional, cell-based
- setup-conditions: A549, 48 h
readout-type: IC50 (nM)

Recorded IC50, per entry:
given-smiles: COc1ccc(/C=C/C(=O)C(=Cc2cc(OC)c(O)c(OC)c2)C(=O)/C=C/c2ccc(OC)cc2OC)c(OC)c1
experimental-system: A549
readout-type: IC50
measurement: 300

given-smiles: COc1ccc(OC)c(/C=C/C(=O)C(=Cc2cc(Br)c(O)c(OC)c2)C(=O)/C=C/c2cc(OC)ccc2OC)c1
experimental-system: A549
readout-type: IC50
measurement: 220

(I) COc1ccc(OC)c(/C=C/C(=O)C(=Cc2cc(OC)c(O)c(OC)c2)C(=O)/C=C/c2cc(OC)ccc2OC)c1
(II) COc1ccc(OC)c(/C=C/C(=O)C(=Cc2ccc(OC)c(O)c2)C(=O)/C=C/c2cc(OC)ccc2OC)c1
(III) COc1cc(OC)c(/C=C/C(=O)C(=Cc2ccc(O)c(F)c2)C(=O)/C=C/c2c(OC)cc(OC)cc2OC)c(OC)c1
Query: Ordering criterion: IC50; begin with the maximum. Give the order by naming the labels one after another as requested.
Response: III, II, I

(I) COc1ccc(OC)c(/C=C/C(=O)C(=Cc2ccc(O)c(F)c2)C(=O)/C=C/c2cc(OC)ccc2OC)c1
(II) COc1cccc(/C=C/C(=O)C(=Cc2ccc(F)cc2)C(=O)/C=C/c2cccc(OC)c2OC)c1OC
(III) COc1ccc(/C=C/C(=O)C(=Cc2cc(Br)c(O)c(OC)c2)C(=O)/C=C/c2ccc(OC)cc2OC)c(OC)c1
(IV) COc1cccc(/C=C/C(=O)/C=C(O)/C=C/c2cccc(OC)c2OC)c1OC
Query: Reorder the items by IC50, least to greatest. # answer = labels listed in requested order
Response: I, II, III, IV

(I) COc1cc(C=C(C(=O)/C=C/c2cccc(OC)c2OC)C(=O)/C=C/c2cccc(OC)c2OC)cc(Br)c1O
(II) COc1ccc(/C=C/C(=O)C(=Cc2ccc(OC)c(O)c2)C(=O)/C=C/c2ccc(OC)cc2OC)c(OC)c1
Query: // pick min by IC50: I , II Write the label of whichever entry you select.
Response: I
(I: 200 nM, II: 380 nM)

(P) COc1cccc(/C=C/C(=O)C(=Cc2cc(OC)c(OC)c(OC)c2)C(=O)/C=C/c2cccc(OC)c2OC)c1OC
(Q) COc1ccc(/C=C/C(=O)C(=Cc2ccc(O)c(F)c2)C(=O)/C=C/c2ccc(OC)cc2OC)c(OC)c1
Query: Lab notebook, comparison: P versus Q , higher IC50 goes to which? Reply with the label of the item you choose.
Response: Q

* * *

- experiment: Inhibition of TNFalpha-induced NF-kappaB translocation in human A549 cells incubated at 37 degC for 30 mins by high content analysis based immunofluorescence assay
- Assay type: cell-based
- setup-conditions: A549, 0.5 h
readout-type: IC50 (µM)

(a) COc1ccc(C=C(C(=O)/C=C/c2cccc(OC)c2OC)C(=O)/C=C/c2cccc(OC)c2OC)cc1OC
(b) COc1ccc(/C=C/C(=O)C(=Cc2ccc(O)c(OC)c2)C(=O)/C=C/c2ccc(OC)cc2OC)c(OC)c1
(c) COc1ccc(OC)c(/C=C/C(=O)C(=Cc2ccc(O)c(F)c2)C(=O)/C=C/c2cc(OC)ccc2OC)c1
(d) COc1ccc(/C=C/C(=O)C(=Cc2ccc(O)c(F)c2)C(=O)/C=C/c2ccc(OC)cc2OC)c(OC)c1
Query: Put the items in sequence by IC50, from largest down. List the labels according to the requested ordering.
Response: d, b, c, a

(1) COc1ccc(C=C(C(=O)/C=C/c2cccc(OC)c2OC)C(=O)/C=C/c2cccc(OC)c2OC)cc1O
(2) COc1cccc(C=C(C(=O)/C=C/c2cccc(OC)c2OC)C(=O)/C=C/c2cccc(OC)c2OC)c1OC
(3) COc1ccc(OC)c(/C=C/C(=O)C(=Cc2cc(Br)c(O)c(OC)c2)C(=O)/C=C/c2cc(OC)ccc2OC)c1
(4) COc1cc(/C=C/C(=O)CC(=O)/C=C/c2ccc(O)c(OC)c2)ccc1O
Query: Rank items: key IC50, increasing. In your reply, arrange the labels in the requested order.
Response: 1, 2, 3, 4
(1: 1.26 µM, 2: 2.39 µM, 3: 4.19 µM, 4: 21.4 µM)

(P) COc1cc(C=C(C(=O)/C=C/c2cccc(OC)c2OC)C(=O)/C=C/c2cccc(OC)c2OC)ccc1O
(Q) COc1ccc(OC)c(/C=C/C(=O)C(=Cc2cc(OC)c(O)c(OC)c2)C(=O)/C=C/c2cc(OC)ccc2OC)c1
Query: When P and Q are compared, which has the higher number for IC50? Identify your pick by its label.
Response: P
(P: 1.71 µM, Q: 0.95 µM)

(A) COc1cc(C=C(C(=O)/C=C/c2cccc(OC)c2OC)C(=O)/C=C/c2cccc(OC)c2OC)cc(Br)c1O
(B) COc1cccc(/C=C/C(=O)C(=Cc2ccc(OC)c(OC)c2OC)C(=O)/C=C/c2cccc(OC)c2OC)c1OC
(C) COc1cc(C=C(C(=O)/C=C/c2cccc(OC)c2OC)C(=O)/C=C/c2cccc(OC)c2OC)cc(OC)c1O
Query: In this exercise, place the 3 molecules in ascending sequence of their recorded IC50. # answer = labels listed in requested order
Response: B, C, A
(B: 1.63 µM, C: 2.62 µM, A: 5.53 µM)
